Reported TGI values are given for each entry in this list.
# System: M19-MEL melanoma
# TEST_DETAILS: NCI tumour cell line growth inhibition, 48 h
MEASURED_PARAMETER: TGI

compound="CC(C)(C)C1C=C(Sc2ccccc2)C(=O)O1 (stereo unspecified)" test_result="> 100 µM"
compound=C/C(CC(=O)Nc1cc(Cl)c(Cl)cc1Cl)=N\NC(N)=O test_result="> 100 µM"
compound="CSC(C1c2ccccc2N(c2ccc(C)cc2)C2=NC(=O)N(C)C(=O)C21Cl)S(=O)(=O)c1ccc(C)cc1 (stereo unspecified)" test_result="69.2 µM"
compound=CCCCN=C(NC#N)NCCCC test_result="> 100 µM"
compound=CCc1ccc(/C=C\c2cc(OC)c(OC)c(OC)c2)cc1 test_result="> 100 µM"
compound=CCC[CH2][Sn]1([CH2]CCC)[O]Cc2nc(C)ccc2[O]1 test_result="19.2 µM"

###

# Tested on: SF-539 CNS
# TEST_DETAILS: NCI tumour cell line growth inhibition, 48 h
Could you label it Satisfied if measured TGI is 4 µM or higher, and Not satisfied otherwise?

compound=C=CC(=O)N1CC2(CCN(c3nc(OC4CCN(CCCOC)CC4)nc4c(OCC(F)(F)F)c(-c5c(C)ccc6[nH]ncc56)c(C5CC5)cc34)CC2)C1 class_name="Not satisfied"
compound="CCOC(=O)C(NC(=O)CC(C)C)(N1CCN(c2cc3c(cc2F)c(=O)c(C(=O)O)cn3C2CC2)CC1)C(F)(F)F (stereo not given)" class_name=Satisfied
compound=O=C(/C(Br)=C/c1ccccc1)c1ccccc1 class_name=Satisfied
compound="O=C1C(Cl)N(c2ccccc2[N+](=O)[O-])C1c1c[nH]c2ccccc12 (stereo not given)" class_name=Satisfied
compound=Cc1cn([C@@H]2C[C@H]2CO)c(=O)[nH]c1=O class_name=Satisfied
compound=NC(=O)c1cc2ccccc2o/c1=N/O class_name=Satisfied
compound=CN(C)S(=O)(=O)Nc1nnc(S(N)(=O)=O)s1 class_name=Satisfied
compound="COc1cc(I)c2c3c1OC1C34CCN(C)C(C2)C4=CC(I)C1(OC)OC (stereo not given)" class_name=Satisfied
compound="O=C1CSC(c2cccs2)N1c1nc2cc3sc(N4C(=O)CSC4c4cccs4)nc3cc2s1 (stereo not given)" class_name="Not satisfied"
compound="C=CCOCCCCC(C(C)=O)C(=O)OC (stereo not given)" class_name=Satisfied

###

The entries below come with measured TGI values attached.
# Test system: SF-539 CNS
# TEST_DETAILS: NCI tumour cell line growth inhibition, 48 h
MEASURED_PARAMETER: TGI (µM)

molecule=Nc1nc(Cl)c2ncn(Cc3ccc(C45CC6CC(CC(C6)C4)C5)c(O)c3)c2n1 measured_parameter=TGI unit_tag=µM limit_sign== test_result=26.7
molecule="CC(C)(C)C1CCC2(CC1)c1[nH]c3ccccc3c1C1(CCC(C(C)(C)C)CC1)c1[nH]c3ccccc3c12 (centres undefined)" measured_parameter=TGI unit_tag=µM limit_sign=> test_result=100
molecule=O=C1CCC(=O)N2CCCCN12 measured_parameter=TGI unit_tag=µM limit_sign=> test_result=100
molecule=COc1ccc2cc(NC(=O)N/N=C\c3ccc(Cl)cc3)ccc2c1 measured_parameter=TGI unit_tag=µM limit_sign=> test_result=100
molecule=O=C(CSc1n[nH]c(=O)[nH]c1=O)NNC(=O)c1cccc2nc3ccccc3nc12 measured_parameter=TGI unit_tag=µM limit_sign=> test_result=100
molecule=N#Cc1cc2c(cc1Cl)Sc1nccn1S2(=O)=O measured_parameter=TGI unit_tag=µM limit_sign== test_result=12.2
molecule="C=C1C(=O)O[C@@]23C1CC[C@@H](C)C2CC[C@@]1(C)OC31 (some centres undefined)" measured_parameter=TGI unit_tag=µM limit_sign== test_result=12.2
molecule="CCC(C)C(=O)OC1CC2(C)C(c3ccoc3)OC(=O)CC23OC2(C)OC34C(OC(=O)C(C)C)C3(O)C(OC(=O)C5(C)OC5C)C5(C)CC3(O)C(C)(C5CC(=O)OC)C14O2 (centres undefined)" measured_parameter=TGI unit_tag=µM limit_sign== test_result=79.6
molecule=CCOn1c(C2(CC3CCN(C(=O)c4ccccc4)CC3)OCCO2)cc2ccccc21 measured_parameter=TGI unit_tag=µM limit_sign== test_result=68.1

###

# Tested on: OVCAR-4 ovarian
# TEST_DETAILS: NCI tumour cell line growth inhibition, 48 h
MEASURED_PARAMETER: TGI (µM)

compound=Oc1ccc2ccccc2c1N=Nc1nccs1 measured_parameter=TGI limit_sign== test_result=16.8
compound=CCCCc1ccc(Nc2nc3c(ncn3COCCO)c(=O)[nH]2)cc1 measured_parameter=TGI limit_sign=> test_result=100
compound="COc1ccc2c(c1)CN1C(=N2)CSC1c1ccccc1Cl (configuration not stated)" measured_parameter=TGI limit_sign== test_result=45.1
compound=C=CCCCCCCCCC(=O)[O][Sn]([CH2]CCC)([CH2]CCC)[CH2]CCC measured_parameter=TGI limit_sign== test_result=0.251
compound="O=C1O[C@@H](c2ccc3c(c2)OCO3)C2C(=O)O[C@@H](c3ccc4c(c3)OCO4)C12 (some centres not stated)" measured_parameter=TGI limit_sign=> test_result=100
compound=Nc1ccc(S(=O)(=O)Nc2nc3ccccc3nc2N2CCCCC2)cc1 measured_parameter=TGI limit_sign== test_result=87.7
compound="C[C@@H]1OC(O)[C@@H](F)[C@H](O)[C@@H]1O (some centres not stated)" measured_parameter=TGI limit_sign=> test_result=100
compound=CCOn1c(C2(CC3CCN(C(=O)c4ccccc4)CC3)OCCO2)cc2ccccc21 measured_parameter=TGI limit_sign== test_result=29.9
compound=CC(C)c1nc(CN(C)C(=O)N[C@H](C(=O)N[C@@H](Cc2ccccc2)C[C@H](O)[C@H](Cc2ccccc2)NC(=O)OCc2cncs2)C(C)C)cs1 measured_parameter=TGI limit_sign=> test_result=92.1
compound=O=[N+]([O-])c1ccc(-c2ccc(-c3csc(Nc4ccccn4)n3)o2)cc1 measured_parameter=TGI limit_sign== test_result=50
compound="CCN1CCC(O)(C(C(=O)O)c2ccccc2)CC1 (configuration not stated)" measured_parameter=TGI limit_sign=> test_result=100
compound=O=[N+]([O-])c1ccc(NC(=S)N=Nc2c(O)[nH]c3ccc(Br)cc23)cc1 measured_parameter=TGI limit_sign== test_result=21.1
compound="O=C1CCC2(c3ccc(F)cc3)Nc3cc(Cl)ccc3N12 (configuration not stated)" measured_parameter=TGI limit_sign=> test_result=100
compound="CC(C)(C)C1CCC2(CC1)c1[nH]c3ccccc3c1C1(CCC(C(C)(C)C)CC1)c1[nH]c3ccccc3c12 (configuration not stated)" measured_parameter=TGI limit_sign=> test_result=100
compound=O=c1c(-c2ccc(Cl)cc2)nnc2n(Cc3ccccc3)c3ccccc3n12 measured_parameter=TGI limit_sign== test_result=30.7
compound=CN1CCN(C(=O)OCc2nc3c(N4CCOCC4)nc(Cl)nc3n2C)CC1 measured_parameter=TGI limit_sign== test_result=2.27
compound=Cc1ccc2c(c1)[n+]([O-])c(N)n[n+]2[O-] measured_parameter=TGI limit_sign=> test_result=100
compound=Cc1nc(C)c(Cc2ccccc2)o1 measured_parameter=TGI limit_sign=> test_result=100
compound=Cn1c2ccccc2c2c(-c3ccccc3)[n+]3ccncc3nc21 measured_parameter=TGI limit_sign=> test_result=100
compound=O=C(Cc1ccccc1)NN1C(=O)/C(=C\c2ccc([N+](=O)[O-])cc2)SC1=Nc1ccccc1 measured_parameter=TGI limit_sign=> test_result=100
compound=[Cl-].[Dy+3].[O-]/N=C(\c1ccccc1)c1ccccn1.[O-]/N=C(\c1ccccc1)c1ccccn1.[O-]/N=C(\c1ccccc1)c1ccccn1 measured_parameter=TGI limit_sign=> test_result=100
compound=Cc1c2ncccc2cc2oc3ccccc3c(=O)c12 measured_parameter=TGI limit_sign=> test_result=100

###

# GI50 annotations
# System: COLO 205 colon
# TEST_DETAILS: NCI tumour cell line growth inhibition, 48 h
MEASURED_PARAMETER: GI50

compound=Oc1c(CN2CCC(N3CCCCC3)CC2)cc(Cc2cc(CN3CCC(N4CCCCC4)CC3)c(O)c3ncccc23)c2cccnc12 measured_parameter=GI50 test_result="0.372 µM"
compound=CCOc1cc2c(Cl)ncnc2c(OCC)c1OCC measured_parameter=GI50 test_result="12.2 µM"
compound=NC(=O)c1ccc(I)c(N)c1 measured_parameter=GI50 test_result="> 100 µM"
compound="CCOC(=O)[C]1([Bi]([CH3])[CH3])N=NC(C(=O)OC)=C1C(=O)OC (stereo not given)" measured_parameter=GI50 test_result="19.8 µM"
compound=C=C1C(=O)O[C@H]2[C@H]1CC/C(COC(=O)c1ccc3ccccc3c1)=C\CC[C@@]1(C)O[C@@H]21 measured_parameter=GI50 test_result="1.36 µM"
compound=N#CSc1c[nH]c2cccc(/C=C/C(=O)/C=C(/C=C/c3cccc4[nH]cc(SC#N)c34)OB(F)F)c12 measured_parameter=GI50 test_result="0.293 µM"
compound=O=C1c2cc(Cl)ccc2S(=O)(=O)c2c(NCCCNCCO)nc3ccccc3c21 measured_parameter=GI50 test_result="1.01 µM"
compound=Cn1c2ccccc2c2c(-c3ccccc3)[n+]3ccncc3nc21 measured_parameter=GI50 test_result="29.5 µM"
compound=CS(=O)(=O)c1ccc([C@H]2O[C@@H](CO)C[C@]2(O)c2ccc(S(C)(=O)=O)cc2)cc1 measured_parameter=GI50 test_result="> 100 µM"
compound=CC1=CC(=Nc2ccc(N(CCCl)CCCl)cc2)C=C(C)C1=O measured_parameter=GI50 test_result="1.49 µM"
